Source of measurements: patent US20100196390A1

# Lookup of reported T1/2 keyed by entry
Biological target: TrkB (Homo sapiens (Human), UniProt Q16620 32-430)
Sequence (Q16620 32-430 limits assumed): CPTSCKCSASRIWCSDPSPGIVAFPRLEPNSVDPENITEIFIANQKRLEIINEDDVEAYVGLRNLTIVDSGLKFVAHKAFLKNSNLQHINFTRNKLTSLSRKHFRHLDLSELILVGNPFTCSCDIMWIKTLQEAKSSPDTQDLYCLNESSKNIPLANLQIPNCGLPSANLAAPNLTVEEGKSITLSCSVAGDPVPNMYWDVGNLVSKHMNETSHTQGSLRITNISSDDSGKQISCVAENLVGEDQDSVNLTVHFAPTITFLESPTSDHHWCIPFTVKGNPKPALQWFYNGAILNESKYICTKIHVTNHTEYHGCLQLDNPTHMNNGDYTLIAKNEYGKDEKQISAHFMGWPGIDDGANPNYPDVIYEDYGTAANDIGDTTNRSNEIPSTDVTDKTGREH
Assay: koff of Fab at 25 C; T1/2=Log2/koff
All answers are understood in min, so give the number only.

binder: 6-E10 (Fab, V domains shown, Fab) VH: QVQLVQSGAEVKKPGASVKVSCKASGYTFTNYVILWVRQAPGQGLEWMGYINPYNDGTKYNEKFKGRVTMTRDTSTSTVYMELSSLRSEDTAVYYCARLLKYRPFSYYAIDYWGQGTTVTVSS VL: DIQMTQSPSSLSASVGDRVTITCRASENVYSNLAWYQQKPGKAPKLLIYAASNLQSGVPSRFSGSGSGTDFTFTISSLQPEDIATYYCQHFSLSPFTFGQGTKLEIK
measurement.units: min
T1/2: 1.3

Please report the recorded T1/2 for 5-B1 (Fab, V domains shown, Fab) VH: QVQLVQSGAEVKKPGASVKVSCKASGYTFTNYVILWVRQAPGQGLEWMGYINPYNDGTKYNEKFKGRVTMTRDTSTSTVYMELSSLRSEDTAVYYCARLLKYRRFTYYAIHYWGQGTTVTVSS VL: DIQMTQSPSSLSASVGDRVTITCRASENVYSNLAWYQQKPGKAPKLLIYAASNLQSGVPSRFSGSGSGTDFTFTISSLQPEDIATYYCQHFWYSPFTFGQGTKLEIK . 1.36
